Entries and their hP2X23/hP2X3* Selectivity (1321N1) values follow.
Biological target: human P2X2/3 receptors (Homo sapiens, UniProt P56373+Q9UBL9)
Construct: expressed in transfected cells; host or cells: human astrocytoma 1321N1 (1312N1 [sic])
Sequence (P56373 1-397): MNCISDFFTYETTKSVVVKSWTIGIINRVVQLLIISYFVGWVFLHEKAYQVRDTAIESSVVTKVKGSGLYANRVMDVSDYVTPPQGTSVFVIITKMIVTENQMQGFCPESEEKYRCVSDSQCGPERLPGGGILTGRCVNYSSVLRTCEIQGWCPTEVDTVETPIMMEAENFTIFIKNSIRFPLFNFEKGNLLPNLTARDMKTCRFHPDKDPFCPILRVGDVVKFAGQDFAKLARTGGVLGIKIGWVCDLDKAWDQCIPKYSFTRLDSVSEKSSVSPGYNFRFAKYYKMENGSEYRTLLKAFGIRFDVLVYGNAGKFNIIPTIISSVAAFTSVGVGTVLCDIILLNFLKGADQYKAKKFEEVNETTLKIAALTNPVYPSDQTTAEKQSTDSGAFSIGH
Sequence (Q9UBL9 1-471): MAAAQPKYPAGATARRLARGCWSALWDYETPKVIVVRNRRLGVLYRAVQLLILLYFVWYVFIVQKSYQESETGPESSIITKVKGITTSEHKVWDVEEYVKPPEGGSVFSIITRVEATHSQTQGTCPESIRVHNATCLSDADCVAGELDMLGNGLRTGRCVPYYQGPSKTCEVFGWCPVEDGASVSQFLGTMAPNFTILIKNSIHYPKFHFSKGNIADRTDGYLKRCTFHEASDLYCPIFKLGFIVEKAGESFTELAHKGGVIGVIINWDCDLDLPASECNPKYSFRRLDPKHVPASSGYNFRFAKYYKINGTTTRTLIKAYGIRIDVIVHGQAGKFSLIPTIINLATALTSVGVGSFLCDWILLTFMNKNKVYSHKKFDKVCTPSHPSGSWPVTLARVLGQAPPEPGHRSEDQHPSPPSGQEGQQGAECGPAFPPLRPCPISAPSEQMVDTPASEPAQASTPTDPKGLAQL
Test: Intracellular calcium measurement, antagonist activity at human P2X2/3 receptors (hP2X23 1321N1), Fluo8
Format: cell-based
Conditions: ratio of column 4) hP2X2/3 to column 3) hP2X3, 1321N1
API doc: respond with a numeric literal and nothing else, no unit.

SMILES_STRING	hP2X23/hP2X3* Selectivity (1321N1)
CCOC(=O)c1cc2n(CC(=O)Nc3ccc(F)cn3)c3c(c(=O)n2n1)CN(C(C)C)C3=O	51

Please find the next compound below.
Note to self: hP2X23/hP2X3* Selectivity (1321N1) of `Cc1cc2n(CC(=O)Nc3ccc(F)cn3)c3c(c(=O)n2n1)CN([C@H](C)C1CC1)C3=O` with human P2X2/3 receptors (Homo sapiens, UniProt P56373+Q9UBL9) was 93
